B1: library; a variant is named by its letters at N, in order (parent)
chain: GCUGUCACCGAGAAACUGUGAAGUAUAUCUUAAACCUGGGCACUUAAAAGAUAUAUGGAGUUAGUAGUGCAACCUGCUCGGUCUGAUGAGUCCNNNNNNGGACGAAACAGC

Variants of: B1
Protocol Description: normalized RNA/DNA level with ligand (relative to sTRSVctl = 100) (log10 (% of sTRSVctl)); HEK293T; ligand: cyclic di-GMP (c-di-GMP-II aptamer); ligand concentration (+) RNA-Seq: 1 mM; higher = less ribozyme self-cleavage, higher mRNA level
Measurement Parameters: reporter: mCherry (pCS4076), ligand present: yes
Endpoint: normalized RNA/DNA level with ligand (log10)
Number only, no unit.

- Mutant: "GGCCAU"
  Numeric Result: 1.84
- Mutant: "CAGGCU"
  Numeric Result: 1.9
- Mutant: "GAAGUU"
  Numeric Result: 1.7
- Mutant: "GUGCGU"
  Numeric Result: 1.84
- Mutant: "CUCCCG"
  Numeric Result: 1.91

Enquiry: For GAAAUU , write its normalized RNA/DNA level with ligand (log10).
Return: 1.78

Enquiry: Quote normalized RNA/DNA level with ligand (log10) reported for CCACUU please.
Return: 1.69
